# assay_details: Compound cytotoxicity, XTT-based colorimetric assay
# Assay type: cell-based
# experimental_context: human; uninfected MT2 cells, day 4, XTT
So I've got a bunch of compounds here, and I need their CC50 at 4 day values.

compound	CC50 at 4 day
Cn1nc(NS(C)(=O)=O)c2c(Cl)ccc(-n3c([C@H](Cc4cc(F)cc(F)c4)NC(=O)Cn4nc(C(F)F)c5c4C(F)(F)[C@@H]4C[C@H]54)nc4cc(C5=CCCCC5)ccc4c3=O)c21 (atropisomer, axis not shown; (P)) [Example 6]	> 1000 nM
Cn1nc(NS(C)(=O)=O)c2c(Cl)ccc(-n3c([C@H](Cc4cc(F)cc(F)c4)NC(=O)Cn4nc(C(F)F)c5c4C(F)(F)[C@@H]4C[C@H]54)nc4cc(C5=CCCC5)ccc4c3=O)c21 (atropisomer, axis not shown; (P)) [Example 8]	> 1000 nM
Cn1nc(NS(C)(=O)=O)c2c(Cl)ccc(-n3c([C@H](Cc4cc(F)cc(F)c4)NC(=O)Cn4nc(C(F)F)c5c4C(F)(F)[C@@H]4C[C@H]54)nc4cc(CC5CC5)ccc4c3=O)c21 (atropisomer, axis not shown; (P)) [Example 12]	> 1000 nM

Could you now look at the following compound, please?
INPUT: Fill in: CC50 at 4 day of CN1CCC(c2ccc3c(=O)n(-c4ccc(Cl)c5c(NS(C)(=O)=O)nn(C)c45)c([C@H](Cc4cc(F)cc(F)c4)NC(=O)Cn4nc(C(F)F)c5c4C(F)(F)[C@@H]4C[C@H]54)nc3c2)CC1 (atropisomer, axis not shown; (P)) [Example 14] is ___
OUTPUT: > 500 nM
